# EXPERIMENTAL_DETAILS: Biodistribution in PC-3 tumor-bearing NSG mice (Example 2)
# Type: in vivo
# STUDY_CONDITIONS: male, NSG (NOD.Cg-Prkdc^scid Il2rg^tm1Wjl/SzJ), mouse, adrenal glands, iv, total radioactivity, 60 MIN BLOCKED, co-injection of 100 μg of [D-Phe^6,Leu-NHEt^13,des-Met^14]Bombesin(6-14); read-out: Biodistribution ADRENAL GLANDS, Mean
RESULT_TYPE: tissue uptake at 1 h (%ID/g)
Please reply with the bare figure in %ID/g and do not write the unit itself.

Data request, read-out tissue uptake at 1 h, for CC(C)C[C@@H](CN1CCC[C@H]1C(N)=O)NC(=O)[C@H](Cc1c[nH]cn1)NC(=O)CNC(=O)[C@@H](NC(=O)[C@H](C)NC(=O)[C@H](Cc1c[nH]c2ccccc12)NC(=O)[C@H](CCC(N)=O)NC(=O)[C@@H](Cc1ccccc1)NC(=O)CN1CCC(NC(=O)CN2CCN(CC(=O)O)CCN(CC(=O)O)CCN(CC(=O)O)CC2)CC1)C(C)C [^68Ga-ProBOMB2, metal not drawn]
0.32
